Source of measurements: patent EP4623908A1

- PROCEDURE SUMMARY: Plasma pharmacokinetics in rats after tracheal nebulization, intravenous injection and oral gavage (Example 1)
- Assay type: in vivo, SD rats
- EXPERIMENTAL SETUP: male, Sprague-Dawley; rat plasma; oral gavage (po) 60 mg/kg
PARAMETER MEASURED: AUC(0-t)
Note: a bare number is incomplete; add the unit.

Fill in AUC(0-t) for record O=C(O[C@@H]1Cc2c(O)cc(O)cc2O[C@@H]1c1cc(O)c(O)c(O)c1)c1cc(O)c(O)c(O)c1 [EGCG, (-)-Epigallocatechin gallate]
0.372 µg·h/mL

----------
- PROCEDURE SUMMARY: Drug concentration in rat plasma and lungs after tracheal nebulization and oral gavage (Example 2)
- Assay type: in vivo, rats
- EXPERIMENTAL SETUP: plasma, oral gavage (po. 60mg/kg)
PARAMETER MEASURED: Cmax (µg/mL)
Answer in µg/mL, number only, no unit symbol.

Fill in Cmax for record O=C(O[C@@H]1Cc2c(O)cc(O)cc2O[C@@H]1c1cc(O)c(O)c(O)c1)c1cc(O)c(O)c(O)c1 [EGCG, (-)-Epigallocatechin gallate]
0.046
